Test system: SNB-75 CNS
Experiment: NCI tumour cell line growth inhibition, 48 h
# TGI per record follows

# COMPOUND, TGI
records = [
    ("CC(=O)c1cccc(NC(=O)C(=O)C(c2cnc3ccc([N+](=O)[O-])cc3n2)[N+](=O)[O-])c1 (stereo unspecified)", "> 100 µM"),
    ("COc1ccc(N=Nc2c(C)c(C#N)c(=S)n(C3OC(CO)C(O)C(O)C3O)c2C)cc1 (stereo unspecified)", "> 100 µM"),
    ("Cc1sc(C)c2c1C(=O)CC2N (stereo unspecified)", "> 83.1 µM"),
    ("O=C(O)CCc1c2ccc(=O)c(O)c-2oc2c(O)c(O)ccc12", "> 100 µM"),
    ("CCCCCCOc1ccc(C(=O)N(C)O)cc1", "> 94.4 µM"),
    ("CC(C)(C)OC(=O)C1=C2C=C(O)C=CC2(C)N(Cc2ccccc2)C1=N (stereo unspecified)", "> 56.7 µM"),
    ("CN(C)C=NCCN1CCOCC1", "> 100 µM"),
    ("O=c1[nH]nc(Cn2c3ccc(Br)cc3c3nc4ccccc4nc32)n1C1CCCCC1", "> 100 µM"),
    ("N#Cc1c(O)c(N=Nc2ccc(Cl)cc2)c(=O)n2c1[nH]c1ccccc12", "> 100 µM"),
    ("COC(=O)C1=CN(C2CCCCC2)C2(c3ccccc3)c3ccccc3C(=O)OC(=O)C12 (stereo unspecified)", "> 100 µM"),
    ("C=C1C2CC(OC(C)=O)C3(C)C(c4ccoc4)OC(=O)[C@@H](O)[C@]13OC1C[C@H](OC(C)=O)C(C)(C)[C@H](CC(=O)OC)[C@]12C (stereo partly specified)", "> 100 µM"),
    ("Cc1nn2c(C(=O)N/N=C/c3ccc([N+](=O)[O-])cc3)c(C)nc2s1", "> 100 µM"),
    ("Cc1c(N/C=C(\\C#N)C(=O)c2ccc(Cl)cc2)c(=O)n(-c2ccccc2)n1C", "> 100 µM"),
    ("CC(C)(CCCCC(C)(C)C1NC(=O)N1)C1NC(=O)N1", "> 10 µM"),
    ("COc1cc([C@@]23OC[C@@H]4[C@@H](OC[C@@H]42)c2cc4c(cc23)OCO4)cc(OC)c1OC", "> 100 µM"),
    ("O=C(N/N=C/c1ccccc1O)c1ccccc1Nc1ccccc1C(=O)N/N=C/c1ccccc1O", "> 100 µM"),
]
